Each entry below carries its reported pKi.
Target Or System: human FAAH (Homo sapiens)
Construct: host or cells: COS-7 cells, transient transfection; 13,000 g membrane fraction solubilised in 1% Triton X-100
Sequence (O00519 1-579): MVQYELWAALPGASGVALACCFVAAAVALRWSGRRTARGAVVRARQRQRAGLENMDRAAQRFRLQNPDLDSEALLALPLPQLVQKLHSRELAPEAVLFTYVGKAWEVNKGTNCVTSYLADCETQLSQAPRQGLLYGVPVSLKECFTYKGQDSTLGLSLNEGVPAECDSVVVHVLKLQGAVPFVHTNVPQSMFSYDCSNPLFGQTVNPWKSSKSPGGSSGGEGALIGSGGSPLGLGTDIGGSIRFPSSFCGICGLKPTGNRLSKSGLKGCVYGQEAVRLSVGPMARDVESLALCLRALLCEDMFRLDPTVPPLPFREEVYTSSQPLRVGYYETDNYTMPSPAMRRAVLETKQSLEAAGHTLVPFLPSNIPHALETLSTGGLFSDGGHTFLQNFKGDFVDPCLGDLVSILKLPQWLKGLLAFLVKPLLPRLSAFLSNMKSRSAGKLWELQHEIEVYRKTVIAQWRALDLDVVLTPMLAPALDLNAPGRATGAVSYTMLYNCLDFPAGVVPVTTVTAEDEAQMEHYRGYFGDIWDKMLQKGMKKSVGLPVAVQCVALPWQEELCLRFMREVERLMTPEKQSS
Protocol Notes: Human FAAH biochemical inhibition assay (AMC arachidonoyl amide fluorescence)
Condition Details: Table 2, human FAAH (no asterisk); read-out: Activity (Ki)
pKi: −log10 of the molar value.
Property Measured: pKi

>>> print(df.to_string())
                                    compound  reported_value
 0  OB(O)c1ccc(Oc2cccc(Oc3cccc4ccccc34)c2)cc1 [II-190]    7.00 to 8.00
 1       OB(O)c1ccc(OCCc2ccccc2)cc1 [II-167]          > 8.00
 2  OB(O)c1ccc(Oc2ccc(C(F)(F)F)c(Cl)c2)cc1 [II-256]          > 8.00
 3  CCCCCC(=O)Nc1cccc(CCOc2ccc(B(O)O)c(F)c2)c1 [II-21]          > 8.00
 4  OB(O)c1ccc(Oc2ccc(F)c(F)c2)cc1F [II-210]          > 8.00
 5                OB(O)c1ccc2sccc2c1 [II-49]    6.00 to 8.00
 6  Nc1cccc(CCOc2ccc(B(O)O)c(F)c2)c1 [II-37]          > 8.00
 7  OB(O)c1ccc(OC[C@@H](COCc2ccccc2)OCc2ccccc2)cc1F [II-108]    7.00 to 8.00
 8      CN(C)c1cc(B(O)O)cc(C(=O)O)c1 [II-88]          < 6.00
 9  CN(C)CCNC(=O)C(Oc1ccc(B(O)O)cc1)c1ccccc1 (centres unmarked) [II-215]          < 6.00
10    OB(O)c1ccc(CN2CCc3ccccc32)cc1F [II-91]          > 8.00

====

Target Or System: human FAAH (Homo sapiens, UniProt O00519)
Construct: host or cells: COS-7 cells, transient transfection; 13,000 g membrane fraction solubilised in 1% Triton X-100
Protocol Notes: Human FAAH biochemical inhibition assay (AMC arachidonoyl amide fluorescence)
Condition Details: Table 1, human FAAH (no asterisk); read-out: Activity (Ki)
Method: The resulting solution is added into one dish of 30-40% confluent COS-7 cells in a drop-wise manner. The COS-7 cell dish is subsequently incubated for 48 hours. The cells are then harvested. Harvest procedure: Media was aspirated from the dishes and the cells rinsed with 10 mL PBS. […] Human FAAH assay; Experimental Protocol: A 0.1 mg/mL Human FAAH solution is made up in FAAH reaction buffer, and 24 ul pipetted into a 384 well plate. […] The microtiter plate in read in the envision plate reader.
pKi: −log10 of the molar value.
Property Measured: pKi

                                 smiles_repr  reported_value
 0                    CCCCCCCc1ccc(B(O)O)cc1          > 8.00
 1                          Cc1cccc(B(O)O)c1          < 6.00
 2  COc1ccc(CN(Cc2ccccc2)S(=O)(=O)c2ccc(B(O)O)cc2)cc1    6.00 to 8.00
 3                   COc1ccc2cc(B(O)O)ccc2c1    7.00 to 8.00
 4                      OB(O)c1cc(F)cc(Br)c1    7.00 to 8.00
 5            O=C(OCc1ccccc1)c1ccc(B(O)O)cc1          > 8.00
 6                     CC(=O)c1ccc(B(O)O)cc1    6.00 to 8.00
 7               O=[N+]([O-])c1ccc(B(O)O)cc1    6.00 to 8.00
 8                      CCCCCc1ccc(B(O)O)cc1          > 8.00
 9                          Cc1ccc(B(O)O)cc1          < 6.00
10                         CCc1ccc(B(O)O)cc1    6.00 to 8.00

====

Target Or System: human FAAH (Homo sapiens, UniProt O00519)
Construct: host or cells: COS-7 cells, transient transfection; 13,000 g membrane fraction solubilised in 1% Triton X-100
Protocol Notes: Human FAAH biochemical inhibition assay (AMC arachidonoyl amide fluorescence)
Condition Details: Table 2, human FAAH (no asterisk); read-out: Activity (Ki)
Property Measured: Ki

In [3]: df
Out[3]:
                                    compound  reported_value
 0            OB(O)c1ccc2scc(COc3ccccc3)c2c1       > 1000 nM
 1              OB(O)c1ccc(-c2ccc(F)cc2)cc1F         < 10 nM
 2                OB(O)c1ccc(COCC2CCCCC2)cc1    10 to 100 nM
 3  OB(O)c1ccc(COC2CCCc3ccccc32)cc1 (stereo not drawn)    10 to 100 nM
 4                 OB(O)c1ccc(COC2CCCCC2)cc1         < 10 nM
 5                 OB(O)c1ccc(-c2cccnc2)cc1F    10 to 100 nM
 6   COc1ccc(Oc2cccc(Oc3ccc(B(O)O)cc3)c2)cc1         < 10 nM
 7         O=C(CCc1ccccc1)c1ccc(B(O)O)c(F)c1         < 10 nM
 8               OB(O)c1ccc(Oc2ccc(F)cc2)cc1         < 10 nM
 9                  OB(O)c1ccc(Oc2ccccc2)cc1         < 10 nM
10  CN(C)[C@@H](COc1ccc(B(O)O)c(F)c1)Cc1ccccc1       > 1000 nM
11             OB(O)c1ccc(OCc2ccc(Cl)cc2)cc1         < 10 nM
12        COc1cc(Oc2ccc(B(O)O)cc2)cc(OC)c1OC    10 to 100 nM
13                        OB(O)c1ccc2occc2c1   10 to 1000 nM
14       O=C1c2ccccc2C(=O)N1Cc1ccc(B(O)O)cc1    10 to 100 nM
15             OB(O)c1ccc(Oc2cccc(F)c2)cc1Cl         < 10 nM
16         CCO/N=C(\c1ccccc1)c1ccc(B(O)O)cc1    10 to 100 nM
17               OB(O)c1ccc(COCc2ccccc2)cc1F         < 10 nM
18        CCOc1ccc(CCOc2ccc(B(O)O)c(F)c2)cc1         < 10 nM
19         O=S(=O)(Cc1ccccc1)c1ccc(B(O)O)cc1       > 1000 nM
20               Cc1ccc(Oc2ccc(B(O)O)cc2)cc1         < 10 nM
21        OB(O)c1ccc(OCc2cn(C3CCCC3)nn2)cc1F    10 to 100 nM
22           Cc1ccc(-c2ccc(B(O)O)c(F)c2)cc1F         < 10 nM
23        CN(C)c1cccc(Oc2ccc(B(O)O)c(F)c2)c1    10 to 100 nM

====

Target Or System: human FAAH (Homo sapiens)
Construct: host or cells: COS-7 cells, transient transfection; 13,000 g membrane fraction solubilised in 1% Triton X-100
Sequence (O00519 1-579): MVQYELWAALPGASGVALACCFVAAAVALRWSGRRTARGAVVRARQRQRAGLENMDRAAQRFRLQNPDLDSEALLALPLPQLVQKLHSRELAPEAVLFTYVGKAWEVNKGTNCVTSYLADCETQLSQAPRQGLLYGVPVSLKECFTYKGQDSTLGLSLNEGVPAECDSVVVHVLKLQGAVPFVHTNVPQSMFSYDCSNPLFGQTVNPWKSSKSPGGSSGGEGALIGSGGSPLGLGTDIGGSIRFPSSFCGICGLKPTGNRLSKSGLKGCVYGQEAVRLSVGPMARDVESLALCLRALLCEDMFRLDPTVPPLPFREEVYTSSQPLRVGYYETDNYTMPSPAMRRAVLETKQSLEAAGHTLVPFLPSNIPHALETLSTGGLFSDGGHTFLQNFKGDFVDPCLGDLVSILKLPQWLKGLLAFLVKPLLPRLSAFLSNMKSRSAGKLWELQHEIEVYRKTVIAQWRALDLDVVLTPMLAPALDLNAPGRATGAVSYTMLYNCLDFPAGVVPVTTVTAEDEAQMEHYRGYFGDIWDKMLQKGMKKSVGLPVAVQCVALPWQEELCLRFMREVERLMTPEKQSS
Protocol Notes: Human FAAH biochemical inhibition assay (AMC arachidonoyl amide fluorescence)
Condition Details: Table 1, human FAAH (no asterisk); read-out: Activity (Ki)
pKi: −log10 of the molar value.
// pKi lookup, one value per entry
Property Measured: pKi

                        smiles_repr           target_or_system  reported_value
 0            CCOc1cc(F)cc(B(O)O)c1  human FAAH (Homo sapiens)    6.00 to 8.00
 1      OB(O)c1c(F)c(F)c(Br)c(F)c1F  human FAAH (Homo sapiens)          < 6.00
 2               OB(O)c1ccc2nccn2c1  human FAAH (Homo sapiens)          < 6.00
 3             CCCCOc1ccc(B(O)O)cc1  human FAAH (Homo sapiens)    7.00 to 8.00
 4              COc1ccc(B(O)O)cc1OC  human FAAH (Homo sapiens)          < 6.00
 5              OB(O)c1cc(F)cc(F)c1  human FAAH (Homo sapiens)    6.00 to 8.00
 6               N#Cc1ccc(B(O)O)cc1  human FAAH (Homo sapiens)    6.00 to 8.00
 7     O=C(c1ccccc1)c1ccc(B(O)O)cc1  human FAAH (Homo sapiens)          > 8.00
 8                     OB(O)c1ccsc1  human FAAH (Homo sapiens)          < 6.00
 9                     OB(O)c1ccco1  human FAAH (Homo sapiens)          < 6.00
10                COc1cccc(B(O)O)c1  human FAAH (Homo sapiens)          < 6.00
11          CCOc1c(Br)cc(F)cc1B(O)O  human FAAH (Homo sapiens)    6.00 to 8.00
12       CC(C)Oc1c(Br)cc(F)cc1B(O)O  human FAAH (Homo sapiens)          < 6.00
13          OB(O)c1ccc(C2CCCCC2)cc1  human FAAH (Homo sapiens)          > 8.00
14               OB(O)/C=C/c1ccccc1  human FAAH (Homo sapiens)          < 6.00
15            OB(O)c1ccc(Br)c(F)c1F  human FAAH (Homo sapiens)    7.00 to 8.00
16             OB(O)c1cc(F)cc(Cl)c1  human FAAH (Homo sapiens)    7.00 to 8.00
17                     OB(O)c1ccoc1  human FAAH (Homo sapiens)          < 6.00
18  COc1cccc(COc2c(Br)cccc2B(O)O)c1  human FAAH (Homo sapiens)          < 6.00
19            OB(O)c1cc(Cl)cc(Cl)c1  human FAAH (Homo sapiens)    6.00 to 8.00
20    CCCOc1c(F)c(F)c(B(O)O)c(F)c1F  human FAAH (Homo sapiens)          < 6.00
21      OB(O)c1ccc2c(c1)Oc1ccccc1S2  human FAAH (Homo sapiens)          < 6.00
22                    OB(O)c1ccncc1  human FAAH (Homo sapiens)          < 6.00
23                  OB1OCCc2ccccc21  human FAAH (Homo sapiens)          < 6.00
24           OB(O)c1ccc(-c2cccs2)s1  human FAAH (Homo sapiens)    6.00 to 8.00

Data origin, for the record: patent US8329675B2
